pIC50: −log10 of the molar value.
Consider the following pIC50 data for UniProt Q13822, collected from several reports.
experimental_readout: pIC50

CCc1nc2sc(N3CC[C@H](N(C)C(N)=O)C3)nn2c1N(C)c1nc(-c2ccc(F)cc2)c(C#N)s1 : 7.00 to 11.00
CCCCCC1CN(CC(=O)Nc2cccc(C(=O)O)c2)C(=O)c2cc(-c3ccc(Cl)cc3)nn21 (stereo not shown) : 7.00 to 8.00
C[C@H]1CN(CC(=O)NC(Cc2ccccc2)C(=O)O)C(=O)c2cc(-c3ccc(Cl)cc3)nn21 (stereo partly shown) : 7.00 to 8.00
Cc1nc2ccc(CN3C(=O)N(C)C(=O)C34CCN(C(=O)[C@H](NC(=O)c3cc(C(F)(F)F)ccc3F)C(C)C)CC4)cc2[nH]1 : ≤ 6.00
N#Cc1ccc(COC(=O)N2CCc3cc(C(=O)N4CCc5[nH]nnc5C4)nn3CC2)cc1 : 8.40
CC(C)[C@@H](NC(=O)c1cc(C(F)(F)F)ccc1F)C(=O)N1CCC2(CC1)C(=O)N(C)[C@@H](C)N2c1ccc(C(=O)O)cc1 : > 6.30
CC(C)(CCN1C(=O)[C@@H]2Cc3c(n(Cc4ccc(F)cc4)c4ccccc34)CN2C1=O)C(=O)O : > 6.30
CN(Cc1cnn[nH]1)C(=O)N1C[C@H]2CCN(C(=O)/C=C/c3ccc(OC(F)(F)F)cc3)CC[C@H]2C1 : 7.13
CC(C)(O)C1CCN1C(=O)c1cnc(NC2Cc3ccc(Cl)cc3C2)nc1 (stereo not shown) : > 7.00
Cn1c(COc2cc(Cl)c(C#N)cc2-c2cc(OCC3CCCO3)ccc2F)n[nH]c1=O (stereo not shown) : 8.30
O=C(/C=C/c1cc(Cl)cc(Cl)c1)N1C[C@@H]2CN(C(=O)c3ccc4[nH]nnc4c3)C[C@H]2C1 : 8.22
CCCCCC1CN(CC(=O)N2CCC[C@H](C(=O)O)C2)C(=O)c2cc(-c3ccc(Cl)cc3)nn21 (stereo partly shown) : 7.00 to 8.00
NS(=O)(=O)C1CCN(C(=O)c2nc3c(s2)CN(C(=O)c2cc(OCC4CCOCC4)nc(C4CC4)c2)C3)CC1 : 8.70
CCCCCC1CN(CC(=O)N2CCCC2CCCC)C(=O)c2cc(-c3ccc(Cl)cc3)nn21 (stereo not shown) : 6.00 to 7.00
CC(C)[C@@H](NC(=O)c1cc(C(F)(F)F)ccc1F)C(=O)N1CCC2(CC1)C(=O)N(C)C(=O)N2CC1CCOCC1 : 6.00 to 6.30
CC(C)[C@@H](NC(=O)c1cccc(OC(F)(F)F)c1)C(=O)N1CCC(C)(NC(=O)c2ccc(S(C)(=O)=O)cc2)CC1 : 5.30 to 6.30
O=C(c1ccc2[nH]nnc2c1)N1C[C@@H]2[C@H](C1)[C@H]1CN(C(=O)c3ccc4cc[nH]c4c3)C[C@@H]21 : 5.06
Cc1cc(OCc2n[nH]c3ncccc23)c(C(C)(C)C)cc1C#N : 8.05
CC(C)c1cc(CNc2ncc(C(=O)N3CCC34COC4)cn2)cc(OC(F)(F)F)c1 : > 7.00
Cc1c(Sc2cccc(C(=O)O)c2)c2ccc(Cl)c(F)c2n1CC(=O)N1CCC(CCc2ccccc2)C1 (stereo not shown) : 5.52 to 6.30
O=C(NC1CC2(C1)CN(C(=O)OCc1cccc(C(F)(F)F)c1)C2)c1ccc2[nH]nnc2c1 : 5.67
CS(=O)(=O)c1cc(CNc2ncc(C(=O)N3CCC34COC4)cn2)cc(OC(F)(F)F)c1 : ≤ 6.00
CC(=O)N1CCc2c(COc3cc(C)c(Cl)cc3C(C)(C)C)n[nH]c2C1 : 7.77
NS(=O)(=O)c1ccc(C(=O)N2C[C@@H]3CN(C(=O)c4cc5ccccc5c(OCC(F)(F)F)n4)C[C@@H]3C2)cc1 : 8.26
CC(=O)Nc1cc(C#N)ccc1-c1cc2n(n1)[C@@H](C)CN(Cc1cccc(C(=O)O)c1)C2=O : > 8.00
CN(c1nc(-c2ccc(F)cc2)c(C#N)s1)c1c(CCO)nc2sc(N3CC[C@@H](N(C)CC(=O)N4CC(O)C4)C3)nn12 : 6.00 to 6.30
CCCCCC1CN(Cc2ccc(S(C)(=O)=O)cc2)C(=O)c2cc(-c3ccc(Cl)cc3)nn21 (stereo not shown) : 6.00 to 7.00
Cc1cc(OCc2n[nH]c3ncccc23)c(-c2cc(C(=O)N(C)C)ccc2F)cc1Cl : 8.05
